// provenance: paper PMC9585939

In this section, each of the molecules is paired with its reported pIC50.
Test system: HIV-2 03PTHCC19
Assay: microbe, parasite or virus in culture
Settings: Human immunodeficiency virus 2, TZM-bl, 48 h, read-out: IC50 HIV-2
// pIC50: -log10(molar conc.)

Answered cases to consult:
Entry COc1ccc(COC(=O)C2=CCC3(C(=O)N4C(C(=O)OC(c5ccccc5)c5ccccc5)C(C)(C)SC43)C2C(=O)c2ccc(Cl)cc2)cc1 (centres unmarked) [Compound 14d] ; pIC50 = 7.19

Entry COc1ccc(COC(=O)C2=CCC3(C(=O)N4C(C(=O)OC(c5ccccc5)c5ccccc5)C(C)(C)SC43)C2C(=O)c2ccccc2)cc1 (centres unmarked) ; pIC50 = 6.95

Entry CC1(C)SC2N(C(=O)C23CC=C(C(=O)OCc2ccccc2)C3C(=O)c2ccc(F)cc2)C1C(=O)OC(c1ccccc1)c1ccccc1 (centres unmarked) [Compound 12a] ; pIC50 = 7.96

Entry CC1(C)SC2N(C(=O)C23CC=C(C(=O)OCC=Cc2ccccc2)C3C(=O)c2ccccc2)C1C(=O)OC(c1ccccc1)c1ccccc1 (centres unmarked) ; pIC50 = 7.80

Entry CC1(C)SC2N(C(=O)C23CC=C(C(=O)OCc2ccccc2)C3C(=O)c2ccc(Br)cc2)C1C(=O)OC(c1ccccc1)c1ccccc1 (centres unmarked) [Compound 12c] ; pIC50 = 7.03

***
Entry COc1ccc(COC(=O)C2=CCC3(C(=O)N4C(C(=O)OC(c5ccccc5)c5ccccc5)C(C)(C)SC43)C2C(=O)c2ccc(Br)cc2)cc1 (centres unmarked) [Compound 14g] ; pIC50 = 7.06

Entry COc1ccc(COC(=O)C2=CCC3(C(=O)N4C(C(=O)OC(c5ccccc5)c5ccccc5)C(C)(C)SC43)C2C(=O)c2ccc(F)cc2)cc1 (centres unmarked) [Compound 14a] ; pIC50 = 7.89

Entry CC1(C)SC2N(C(=O)C23CC=C(C(=O)OCC=Cc2ccccc2)C3C(=O)c2ccc(F)cc2)C1C(=O)OC(c1ccccc1)c1ccccc1 (centres unmarked) [Compound 14c] ; pIC50 = 7.41

---

Experiment: Cellular viability assay (alamarBlue) in TZM-bl cells
Type: cell-based
Conditions: human, 50% cytotoxic concentration
In this section, each of the molecules is paired with its reported CC50.
Number only, in µM; omit the unit.

Answered cases to consult:
Entry CC1(C)SC2N(C(=O)C23C(C(=O)OCc2ccccc2)=CCC3C(=O)c2ccco2)C1C(=O)OC(c1ccccc1)c1ccccc1 (stereo not drawn) [Compound 13i] ; CC50 = 61.2

Entry CC1(C)SC2N(C(=O)C23CC=C(C(=O)OCc2ccccc2)C3C(=O)c2ccc(Cl)cc2)C1C(=O)OC(c1ccccc1)c1ccccc1 (stereo not drawn) [Compound 12b] ; CC50 = 56

# ---- query molecule ----
Entry COc1ccc(COC(=O)C2=CCC3(C(=O)N4C(C(=O)OC(c5ccccc5)c5ccccc5)C(C)(C)SC43)C2C(=O)c2ccc(Cl)cc2)cc1 (stereo not drawn) [Compound 14d] ; CC50 = 134

---

Assay: Cellular viability assay (alamarBlue) in TZM-bl cells
Assay type: cell-based
Conditions: human, 50% cytotoxic concentration
# note: boundary value 60 µM maps to 0 (no); CC50 below it maps to 1 (yes)

Study these solved cases before continuing.
# strict comparison: is reported CC50 < 60 µM? input = CC1(C)SC2N(C(=O)C23CC=C(C(=O)OCc2ccc([N+](=O)[O-])cc2)C3C(=O)c2ccccc2)C1C(=O)OC(c1ccccc1)c1ccccc1 (stereo not drawn)
1 (yes)

# strict comparison: is reported CC50 < 60 µM? input = CC1(C)SC2N(C(=O)C23CC=C(C(=O)OCc2ccc(F)cc2)C3C(=O)c2ccccc2)C1C(=O)OC(c1ccccc1)c1ccccc1 (stereo not drawn)
1 (yes)

# strict comparison: is reported CC50 < 60 µM? input = COc1cccc(OC(=O)C2=CCC3(C(=O)N4C(C(=O)OC(c5ccccc5)c5ccccc5)C(C)(C)SC43)C2C(=O)c2ccccc2)c1 (stereo not drawn)
1 (yes)

# strict comparison: is reported CC50 < 60 µM? input = CC1(C)SC2N(C(=O)C23CC=C(C(=O)OCC=Cc2ccccc2)C3C(=O)c2ccc(Br)cc2)C1C(=O)OC(c1ccccc1)c1ccccc1 (stereo not drawn) [Compound 14i]
0 (no)

***
# strict comparison: is reported CC50 < 60 µM? input = CC1(C)SC2N(C(=O)C23CC=C(C(=O)OCc2ccccc2)C3C(=O)c2ccco2)C1C(=O)OC(c1ccccc1)c1ccccc1 (stereo not drawn) [Compound 12i]
0 (no)

# strict comparison: is reported CC50 < 60 µM? input = CC1(C)SC2N(C(=O)C23C(C(=O)OCc2ccccc2)=CCC3C(=O)c2ccc(Cl)cc2)C1C(=O)OC(c1ccccc1)c1ccccc1 (stereo not drawn) [Compound 13b]
0 (no)

# strict comparison: is reported CC50 < 60 µM? input = CC1(C)SC2N(C(=O)C23CC=C(C(=O)OCc2ccccc2)C3C(=O)c2ccc([N+](=O)[O-])cc2)C1C(=O)OC(c1ccccc1)c1ccccc1 (stereo not drawn) [Compound 12d]
1 (yes)

# strict comparison: is reported CC50 < 60 µM? input = CC1(C)SC2N(C(=O)C23CC=C(C(=O)OCc2ccccc2)C3C(=O)c2cc(F)cc(F)c2)C1C(=O)OC(c1ccccc1)c1ccccc1 (stereo not drawn) [Compound 12f]
0 (no)

# strict comparison: is reported CC50 < 60 µM? input = CC1(C)SC2N(C(=O)C23CC=C(C(=O)OCc2ccccc2)C3C(=O)c2ccc(C(F)(F)F)cc2)C1C(=O)OC(c1ccccc1)c1ccccc1 (stereo not drawn) [Compound 12e]
0 (no)

# strict comparison: is reported CC50 < 60 µM? input = CC1(C)SC2N(C(=O)C23C(C(=O)OCc2ccccc2)=CCC3C(=O)c2ccc3ccccc3c2)C1C(=O)OC(c1ccccc1)c1ccccc1 (stereo not drawn) [Compound 13h]
1 (yes)

# strict comparison: is reported CC50 < 60 µM? input = CC1(C)SC2N(C(=O)C23CC=C(C(=O)OCc2ccccc2)C3C(=O)c2ccc(Br)cc2)C1C(=O)OC(c1ccccc1)c1ccccc1 (stereo not drawn) [Compound 12c]
1 (yes)
